target: HDAC8 (Homo sapiens); experiment: HDAC-Glo inhibitor testing with recombinant HDAC8
Sequence (Q9BY41 whole entry): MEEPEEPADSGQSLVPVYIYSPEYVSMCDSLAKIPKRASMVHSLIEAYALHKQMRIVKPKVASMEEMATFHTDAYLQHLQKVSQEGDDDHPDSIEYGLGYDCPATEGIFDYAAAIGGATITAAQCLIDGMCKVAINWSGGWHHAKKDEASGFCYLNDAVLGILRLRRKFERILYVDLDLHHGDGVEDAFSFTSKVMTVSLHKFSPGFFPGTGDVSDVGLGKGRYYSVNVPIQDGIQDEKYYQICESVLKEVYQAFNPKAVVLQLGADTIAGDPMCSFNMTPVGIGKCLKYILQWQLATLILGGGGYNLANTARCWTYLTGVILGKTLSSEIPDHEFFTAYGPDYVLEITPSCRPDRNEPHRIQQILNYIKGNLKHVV
pIC50: −log10 of the molar value.
assayReadout: pIC50

compoundSmiles: Cn1ccnc1C(=O)/C=C/c1ccc(CC(=O)Nc2ccc(S(F)(F)(F)(F)F)cc2)cc1
measuredOn: HDAC8 (Homo sapiens)
assayReadout: pIC50
operator: =
obsValue: 5.52

compoundSmiles: C#Cc1ccc(NC(=O)Cc2ccc(/C=C/C(=O)c3nccn3C)cc2)cc1
measuredOn: HDAC8 (Homo sapiens)
assayReadout: pIC50
operator: =
obsValue: 4.92

compoundSmiles: Cn1ccnc1C(=O)/C=C/c1ccc(CC(=O)Nc2c(F)c(F)c(F)c(F)c2F)cc1
measuredOn: HDAC8 (Homo sapiens)
assayReadout: pIC50
operator: =
obsValue: 5.05

compoundSmiles: Cn1ccnc1C(=O)/C=C/c1ccc(CC(=O)Nc2ccc(Br)cc2)cc1
measuredOn: HDAC8 (Homo sapiens)
assayReadout: pIC50
operator: <
obsValue: 4.00

compoundSmiles: Cn1ccnc1C(=O)/C=C/c1ccc(CC(=O)Nc2cc(C(F)(F)F)cc(C(F)(F)F)c2)cc1
measuredOn: HDAC8 (Homo sapiens)
assayReadout: pIC50
operator: =
obsValue: 4.82

compoundSmiles: Cn1ccnc1C(=O)/C=C/c1ccc(CC(=O)Nc2cc(F)c(F)c(F)c2)cc1
measuredOn: HDAC8 (Homo sapiens)
assayReadout: pIC50
operator: =
obsValue: 4.89

Measured values drawn from paper PMC8530978 for this set.
